These measurements were taken from paper PMC9407945.

target: SARS-CoV-2 spike ectodomain (S-ecto), Wuhan-hu-1 strain, 2P (SARS-CoV-2, Wuhan-hu-1, UniProt P0DTC2, 2P mutation at residues 986 and 987 | 2P mutation at residues 986 and 987, biotin (NHS-sulfo-LC-Biotin, EZ-link biotinylation kit)); test: BLI; details: both partners purified
attribute_measured: kon (M⁻¹ s⁻¹)
Field format: number, assumed M⁻¹ s⁻¹, no unit text.

What the record says about humanized SW186 H4L3 (antibody, V domains shown) VH: QVQLVQSGAEVKKPGSSVKVSCKASGVAFSSYWMNWVKQAPGQGLEWIGQIYPGDGDTNYNGKFKGKATITADKSTSTAYMELSSLRSEDTAVYFCARGFIATVEETMDYWGQGTLVTVSS VL: DIQMTQSPSSLSASVGDRVTITCRASQDISNYLNWYQQKPGKAPKLLIYYTSRLHSGVPSRFSGSGSGTDYTLTISSLQPEDFATYFCQQSHTLPWTFGGGTKLEIK : kon is 177000

What the record says about humanized SW186 H3L2 (antibody, V domains shown) VH: QVQLVQSGAEVKKPGSSVKVSCKASGVAFSSYWMNWVRQAPGQGLEWIGQIYPGDGDTNYNGKFKGRATITADKSTSTAYMELSSLRSEDTAVYFCARGFIATVEETMDYWGQGTLVTVSS VL: DIQMTQSPSSLSASVGDRVTITCRASQDISNYLNWYQQKPGKAPKLLIYYTSRLHSGVPSRFSGSGSGTDFTLTISSLQPEDFATYFCQQSHTLPWTFGGGTKLEIK : kon is 201000

What the record says about humanized SW186 H3L1 (antibody, V domains shown) VH: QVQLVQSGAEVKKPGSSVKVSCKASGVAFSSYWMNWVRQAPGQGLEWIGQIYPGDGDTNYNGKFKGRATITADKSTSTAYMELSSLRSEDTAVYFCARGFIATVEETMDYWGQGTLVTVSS VL: DIQMTQSPSSLSASVGDRVTITCRASQDISNYLNWYQQKPGKAPKLLIYYTSRLHSGVPSRFSGSGSGTDFTLTISSLQPEDFATYYCQQSHTLPWTFGGGTKLEIK : kon is 178000

What the record says about humanized SW186 H1L2 (antibody, V domains shown) VH: QVQLVQSGAEVKKPGSSVKVSCKASGVAFSSYWMNWVRQAPGQGLEWMGQIYPGDGDTNYNGKFKGRVTITADKSTSTAYMELSSLRSEDTAVYYCARGFIATVEETMDYWGQGTLVTVSS VL: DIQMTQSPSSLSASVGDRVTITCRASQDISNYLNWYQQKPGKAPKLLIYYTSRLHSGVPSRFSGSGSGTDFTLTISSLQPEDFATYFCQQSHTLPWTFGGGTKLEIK : kon is 48200

What the record says about humanized SW186 H2L2 (antibody, V domains shown) VH: QVQLVQSGAEVKKPGSSVKVSCKASGVAFSSYWMNWVRQAPGQGLEWIGQIYPGDGDTNYNGKFKGRVTITADKSTSTAYMELSSLRSEDTAVYFCARGFIATVEETMDYWGQGTLVTVSS VL: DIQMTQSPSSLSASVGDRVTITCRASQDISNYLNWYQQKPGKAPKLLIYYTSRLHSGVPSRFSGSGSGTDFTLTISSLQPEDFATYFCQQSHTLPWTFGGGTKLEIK : kon is 120000
